# tgt: hCA I (Homo sapiens)
# Sequence (P00915 whole entry): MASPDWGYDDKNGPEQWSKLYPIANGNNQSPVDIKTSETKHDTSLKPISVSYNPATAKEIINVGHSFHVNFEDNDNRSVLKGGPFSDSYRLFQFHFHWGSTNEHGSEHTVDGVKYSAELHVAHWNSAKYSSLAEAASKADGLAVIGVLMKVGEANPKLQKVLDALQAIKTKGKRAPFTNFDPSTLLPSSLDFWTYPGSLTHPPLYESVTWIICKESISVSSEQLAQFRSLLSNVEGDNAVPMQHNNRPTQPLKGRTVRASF
# test-method-notes: hCA I esterase activity/kinetic assay
# Assay type: biochemical
# condition: Lineweaver-Burk
measure-name: hCA I Inhibition type

CCSc1nnc(-c2ccc(S(=O)(=O)NC(=O)c3ccccc3)cc2)o1 [6a] : Competitive
CCCC(=O)NS(=O)(=O)c1ccc(-c2nnc(SCC)o2)cc1 [6d] : Competitive
CCCCCCC(=O)NS(=O)(=O)c1ccc(-c2nnc(SCC)o2)cc1 [6g] : Competitive
CCCCCCCCC(=O)NS(=O)(=O)c1ccc(-c2nnc(SCC)o2)cc1 [6i] : Competitive
CCCCCC(=O)NS(=O)(=O)c1ccc(-c2nnc(SCC)o2)cc1 [6f] : Competitive
CCCCCCCC(=O)NS(=O)(=O)c1ccc(-c2nnc(SCC)o2)cc1 [6h] : Competitive

Input line: Give the observed hCA I Inhibition type of CCCCCCCCCCCC(=O)NS(=O)(=O)c1ccc(-c2nnc(SCC)o2)cc1 [6j] for hCA I (Homo sapiens).
Output line: Competitive

Input line: Quote hCA I Inhibition type with test system hCA I (Homo sapiens) for CCCCC(=O)NS(=O)(=O)c1ccc(-c2nnc(SCC)o2)cc1 [6e]
Output line: Competitive

====

Reported Selectivity index hCAI/hCA II values for the following compounds.
# tgt: UniProt:P00918
# test-method-notes: hCA II esterase activity/kinetic assay
# Assay type: biochemical
# condition: ratio of KI values
Answer with a bare number; do not write a unit.

CCCC(=O)NS(=O)(=O)c1ccc(-c2nnc(SCC)o2)cc1 : 0.81

Input line: Specify measured Selectivity index hCAI/hCA II for CCCCC(=O)NS(=O)(=O)c1ccc(-c2nnc(SCC)o2)cc1 .
Output line: 1.27

Input line: Output Selectivity index hCAI/hCA II of CCSc1nnc(-c2ccc(S(=O)(=O)NC(=O)c3ccc(C)cc3)cc2)o1
Output line: 3.34

Input line: Identify measured Selectivity index hCAI/hCA II associated with CCCCCCCCCCCC(=O)NS(=O)(=O)c1ccc(-c2nnc(SCC)o2)cc1
Output line: 1.05

====

# tgt: hCA II (Homo sapiens, UniProt P00918)
# test-method-notes: hCA II esterase activity/kinetic assay
# Format: biochemical
# condition: ratio of KI of acetazolamide to KI of compound
measure-name: Selectivity index AAZ/hCA II

CCCC(=O)NS(=O)(=O)c1ccc(-c2nnc(SCC)o2)cc1 : 4.24
CCCCCCCCC(=O)NS(=O)(=O)c1ccc(-c2nnc(SCC)o2)cc1 : 0.87

Input line: Report Selectivity index AAZ/hCA II for CCCCCC(=O)NS(=O)(=O)c1ccc(-c2nnc(SCC)o2)cc1
Output line: 3.37

Input line: Read the entry CCCCCCCCCCCC(=O)NS(=O)(=O)c1ccc(-c2nnc(SCC)o2)cc1 and write its reported Selectivity index AAZ/hCA II.
Output line: 3.34

Input line: Using the record for CCCCCCCC(=O)NS(=O)(=O)c1ccc(-c2nnc(SCC)o2)cc1 , state its measured Selectivity index AAZ/hCA II.
Output line: 0.81

Input line: Output Selectivity index AAZ/hCA II of CCCCC(=O)NS(=O)(=O)c1ccc(-c2nnc(SCC)o2)cc1
Output line: 2.64

Input line: State, in one line, measured Selectivity index AAZ/hCA II of CCSc1nnc(-c2ccc(S(=O)(=O)NC(=O)c3ccc(C)cc3)cc2)o1
Output line: 5.51

Input line: Quick one: give measured Selectivity index AAZ/hCA II for CCCCCCC(=O)NS(=O)(=O)c1ccc(-c2nnc(SCC)o2)cc1
Output line: 3.20
